assay: folding enthalpy; higher = less favourable; fluorescence melt of hairpins on a sequencing array, two-state fit; settings: sodium 0.088 M
// classify(record): look up folding enthalpy in ranges L (below -40 kcal/mol), M (-40 kcal/mol to below -20 kcal/mol), H (-20 kcal/mol or more)

Query :: Bin? GATCCATTTTGGATC ((((((...))))))
Result :: M

Query :: Bin? GATCGCGTGGCGATC ((((((...))))))
Result :: M

Query :: Bin? GCTGGGCGAAAGCCTCGC ((..(((....)))..))
Result :: H

Query :: Bin? GGGTTGGCGAAAGCCCCC (((..(((....))))))
Result :: H

Query :: Bin? GAGAACGAAAGTTCTC ((((((....))))))
Result :: M

Query :: Bin? GTTTTAGGAAACTAAAAC (((((((....)))))))
Result :: L

Query :: Bin? GTCGTGGCGAAAGCCGAC (((..(((....))))))
Result :: H

Query :: Bin? GTTAGACGAAAGTCAAC (((.(((....))))))
Result :: H

Query :: Bin? GGAAAACGAAAGTTATCC (((.(((....))).)))
Result :: M

Query :: Bin? GAGTACGGAAACGTGCTC (((.(((....))).)))
Result :: L

Query :: Bin? GGACACGGAAACGTGCCC ((.((((....)))).))
Result :: M

Query :: Bin? GTCCTAGGAAACTGGGAC ((((.((....)).))))
Result :: M

Query :: Bin? GCAGTGCGAAAGCCCGGC ((.(.((....)).).))
Result :: H

Query :: Bin? GGTGACGAAAGTCTACC ((((((....))).)))
Result :: M

Query :: Bin? GATCGCCGTTGCGATC ((((((....))))))
Result :: L

Query :: Bin? GTGATCCGAAAGGAACAC (((.(((....))).)))
Result :: M

Query :: Bin? GCGAGCGCGAAAGCGCGC (((..(((....))))))
Result :: H

Query :: Bin? GGATAGGGAAACCTATCC (((((((....)))))))
Result :: L
